These measurements were taken from ChEMBL document CHEMBL3867482.

Below are IC50 values recorded for Cytochrome P450 2C9 (Homo sapiens, UniProt P11712).

[
  {
    "Smiles entry": "O=S(=O)(CC[C@@H]1OCC[C@@]2(S(=O)(=O)c3ccc(Cl)cc3)c3c(F)ccc(F)c3OC[C@@H]12)C[C@@H]1CCCN1",
    "IC50": "> 20 µM"
  }
]

API: value(readout=IC50, system=Cytochrome P450 2C9 (Homo sapiens, UniProt P11712)) for record NCCS(=O)(=O)CC[C@@H]1OCC[C@@]2(S(=O)(=O)c3ccc(Cl)cc3)c3c(F)ccc(F)c3OC[C@@H]12
> 20 µM

API: value(readout=IC50, system=Cytochrome P450 2C9 (Homo sapiens, UniProt P11712)) for record O=S(=O)(CC[C@@H]1OCC[C@@]2(S(=O)(=O)c3ccc(Cl)cc3)c3c(F)ccc(F)c3OC[C@@H]12)C[C@H]1CCCN1
> 20 µM
